target: Peroxisome proliferator-activated receptor gamma/Nuclear receptor coactivator 1 (Homo sapiens); assay: TR-FRET dose response biochemical High Throughput Screening assay for agonists of the steroid receptor coactivator 1 (SRC-1) recruitment by the peroxisome proliferator-activated receptor gamma (PPAR gamma): non-selective agonists. [Related pubchem assays (depositor defined):AID1300, AID1808, AID504735, AID631]; type: protein assay
Sequence (P37231 whole entry): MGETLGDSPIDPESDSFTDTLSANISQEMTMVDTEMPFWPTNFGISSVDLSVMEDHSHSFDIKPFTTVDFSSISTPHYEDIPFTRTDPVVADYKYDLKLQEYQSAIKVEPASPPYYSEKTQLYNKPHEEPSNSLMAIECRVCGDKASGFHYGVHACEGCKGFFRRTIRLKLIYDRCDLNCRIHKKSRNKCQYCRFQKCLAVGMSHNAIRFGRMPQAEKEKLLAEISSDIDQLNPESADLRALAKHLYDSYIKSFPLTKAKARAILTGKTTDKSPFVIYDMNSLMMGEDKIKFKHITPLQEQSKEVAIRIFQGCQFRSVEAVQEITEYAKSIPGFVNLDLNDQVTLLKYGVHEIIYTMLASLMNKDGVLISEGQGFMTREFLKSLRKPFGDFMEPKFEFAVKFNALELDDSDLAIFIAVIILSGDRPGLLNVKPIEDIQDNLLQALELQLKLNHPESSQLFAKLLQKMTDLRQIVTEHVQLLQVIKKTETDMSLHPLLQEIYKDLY
Sequence (Q15788 whole entry, further chain): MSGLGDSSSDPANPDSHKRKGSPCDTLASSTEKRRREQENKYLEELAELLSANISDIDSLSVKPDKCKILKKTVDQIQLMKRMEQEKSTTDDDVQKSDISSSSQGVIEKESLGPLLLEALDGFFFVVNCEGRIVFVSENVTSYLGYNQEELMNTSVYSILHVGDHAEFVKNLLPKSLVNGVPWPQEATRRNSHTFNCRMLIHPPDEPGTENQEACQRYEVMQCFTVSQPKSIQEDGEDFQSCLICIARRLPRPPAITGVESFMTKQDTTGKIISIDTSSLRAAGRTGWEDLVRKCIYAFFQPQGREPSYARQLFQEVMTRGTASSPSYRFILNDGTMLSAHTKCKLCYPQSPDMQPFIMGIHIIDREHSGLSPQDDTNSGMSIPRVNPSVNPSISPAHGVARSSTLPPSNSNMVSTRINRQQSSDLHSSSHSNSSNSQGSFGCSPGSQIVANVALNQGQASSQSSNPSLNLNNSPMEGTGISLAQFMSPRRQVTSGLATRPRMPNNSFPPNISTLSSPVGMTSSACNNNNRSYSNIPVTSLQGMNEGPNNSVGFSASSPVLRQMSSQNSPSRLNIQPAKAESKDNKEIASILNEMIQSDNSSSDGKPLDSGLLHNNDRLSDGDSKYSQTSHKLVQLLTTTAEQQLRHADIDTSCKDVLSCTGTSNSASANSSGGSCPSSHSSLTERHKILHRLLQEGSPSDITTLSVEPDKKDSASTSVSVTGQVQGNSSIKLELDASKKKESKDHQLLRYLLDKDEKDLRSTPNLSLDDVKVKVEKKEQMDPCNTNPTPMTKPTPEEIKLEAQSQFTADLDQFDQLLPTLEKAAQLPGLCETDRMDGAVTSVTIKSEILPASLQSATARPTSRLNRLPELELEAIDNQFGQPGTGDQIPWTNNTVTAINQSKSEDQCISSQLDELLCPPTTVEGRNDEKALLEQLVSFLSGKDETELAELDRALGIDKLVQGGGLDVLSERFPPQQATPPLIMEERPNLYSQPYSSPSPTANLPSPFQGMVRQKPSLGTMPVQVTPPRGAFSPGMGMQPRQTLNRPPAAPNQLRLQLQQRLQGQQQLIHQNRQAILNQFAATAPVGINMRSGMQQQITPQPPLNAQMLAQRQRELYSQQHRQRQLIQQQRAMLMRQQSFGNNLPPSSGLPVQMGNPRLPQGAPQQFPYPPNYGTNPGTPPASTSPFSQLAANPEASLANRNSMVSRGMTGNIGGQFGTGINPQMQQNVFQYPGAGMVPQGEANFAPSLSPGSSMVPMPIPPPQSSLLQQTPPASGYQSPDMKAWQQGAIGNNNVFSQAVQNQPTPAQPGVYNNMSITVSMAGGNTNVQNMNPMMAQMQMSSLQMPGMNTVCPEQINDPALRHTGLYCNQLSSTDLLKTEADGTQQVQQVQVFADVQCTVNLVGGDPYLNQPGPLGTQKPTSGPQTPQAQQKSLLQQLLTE
Activity calls are given as the source filed them.

Molecule: COC(=O)c1c(C)[nH]c(C(=O)C(C)Sc2nnc(-c3cc(OC)c(OC)c(OC)c3)o2)c1C (stereo not given)
EC50: > 79.4 µM (inactive)
//
Molecule: CC(=O)c1sc(NC(=O)C(C)C)nc1C
EC50: > 79.4 µM (inactive)
//
Molecule: CCn1c(=O)cc(SCC(=O)N2CCN(C3CCCCC3)CC2)c2ccccc21
EC50: > 79.4 µM (inactive)
//
Molecule: COc1ccc(NC(=O)CSc2c3c(nc4ccccc24)CCCC3)c(OC)c1
EC50: > 79.4 µM (inactive)
//
Molecule: S=c1[nH]nc(-c2ccccc2)o1
EC50: 16.2 µM (inactive)

* * *

system: Streptococcus sp. 'group A'; experiment: growth inhibition of control SK(-) GAS strain, dose response, counter-screen for streptokinase expression inhibitor project, luminescence, kanamycin, BacTiterGlo, confirmation (AID 1900); format: functional, organism-based
Active and inactive are the calls of the source.
Each entry below carries its reported EC50.
Measured Metric: EC50

Smiles Code: CC1=C(C#N)c2nc(N)c(C#N)c(C)c2/C1=C\c1ccc(C)cc1
System Name: Streptococcus sp. 'group A'
Measurement: 4.38 µM (active)

Smiles Code: CCCCN(CC)S(=O)(=O)c1ccc(C(=O)Nc2nnc(-c3ccccc3Cl)o2)cc1
System Name: Streptococcus sp. 'group A'
Measurement: 0.2 µM (active)

Smiles Code: O=c1c(C(c2ccc([N+](=O)[O-])cc2)c2c(O)oc3ccccc3c2=O)c(O)oc2ccccc12
System Name: Streptococcus sp. 'group A'
Measurement: 8.09 µM (active)

Smiles Code: C#CCN1C(=O)S/C(=C\c2ccc(-c3ccc(Cl)c(C(=O)O)c3)o2)C1=O
System Name: Streptococcus sp. 'group A'
Measurement: 2.41 µM (active)

Smiles Code: COc1ccc(C(=O)N/N=C/c2cc(Br)ccc2O)cc1OC
System Name: Streptococcus sp. 'group A'
Measurement: 0.959 µM (active)

* * *

biological target: G-protein coupled receptor 55 (Homo sapiens); experiment: GPR55 agonists via beta-arrestin recruitment, primary screen, imaging, U2OS cells, beta-arrestin-GFP redistribution (AID 1961); format: functional
Sequence (Q9Y2T6 whole entry): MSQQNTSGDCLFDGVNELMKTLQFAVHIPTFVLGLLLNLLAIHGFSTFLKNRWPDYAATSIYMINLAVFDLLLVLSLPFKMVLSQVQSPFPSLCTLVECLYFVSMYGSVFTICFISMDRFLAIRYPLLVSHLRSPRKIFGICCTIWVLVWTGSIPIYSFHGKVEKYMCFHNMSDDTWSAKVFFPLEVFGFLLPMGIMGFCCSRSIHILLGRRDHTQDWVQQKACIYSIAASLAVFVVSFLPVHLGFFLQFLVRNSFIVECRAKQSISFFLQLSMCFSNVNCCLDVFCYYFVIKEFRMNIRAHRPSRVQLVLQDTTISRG
The source made the active and inactive calls.
Outcomes: active, inactive

Smiles Code: O=C(CSc1nc2ccccc2s1)N1c2ccccc2Sc2ccc(Cl)cc21
Class Assignment: active
//
Smiles Code: O=C(CSc1nc2ccccc2o1)N1c2ccccc2Sc2ccc(C(F)(F)F)cc21
Class Assignment: inactive
//
Smiles Code: OCCNc1nc(O)c2c(ncn2Cc2ccccc2)n1
Class Assignment: inactive
//
Smiles Code: Cc1ccc(S(=O)(=O)N2CCOCC2)cc1NC(=O)CSc1nnc2cc(C)c3ccccc3n12
Class Assignment: inactive

* * *

target: Sentrin-specific protease 6 (Homo sapiens); format: functional
Sequence (Q9GZR1 whole entry): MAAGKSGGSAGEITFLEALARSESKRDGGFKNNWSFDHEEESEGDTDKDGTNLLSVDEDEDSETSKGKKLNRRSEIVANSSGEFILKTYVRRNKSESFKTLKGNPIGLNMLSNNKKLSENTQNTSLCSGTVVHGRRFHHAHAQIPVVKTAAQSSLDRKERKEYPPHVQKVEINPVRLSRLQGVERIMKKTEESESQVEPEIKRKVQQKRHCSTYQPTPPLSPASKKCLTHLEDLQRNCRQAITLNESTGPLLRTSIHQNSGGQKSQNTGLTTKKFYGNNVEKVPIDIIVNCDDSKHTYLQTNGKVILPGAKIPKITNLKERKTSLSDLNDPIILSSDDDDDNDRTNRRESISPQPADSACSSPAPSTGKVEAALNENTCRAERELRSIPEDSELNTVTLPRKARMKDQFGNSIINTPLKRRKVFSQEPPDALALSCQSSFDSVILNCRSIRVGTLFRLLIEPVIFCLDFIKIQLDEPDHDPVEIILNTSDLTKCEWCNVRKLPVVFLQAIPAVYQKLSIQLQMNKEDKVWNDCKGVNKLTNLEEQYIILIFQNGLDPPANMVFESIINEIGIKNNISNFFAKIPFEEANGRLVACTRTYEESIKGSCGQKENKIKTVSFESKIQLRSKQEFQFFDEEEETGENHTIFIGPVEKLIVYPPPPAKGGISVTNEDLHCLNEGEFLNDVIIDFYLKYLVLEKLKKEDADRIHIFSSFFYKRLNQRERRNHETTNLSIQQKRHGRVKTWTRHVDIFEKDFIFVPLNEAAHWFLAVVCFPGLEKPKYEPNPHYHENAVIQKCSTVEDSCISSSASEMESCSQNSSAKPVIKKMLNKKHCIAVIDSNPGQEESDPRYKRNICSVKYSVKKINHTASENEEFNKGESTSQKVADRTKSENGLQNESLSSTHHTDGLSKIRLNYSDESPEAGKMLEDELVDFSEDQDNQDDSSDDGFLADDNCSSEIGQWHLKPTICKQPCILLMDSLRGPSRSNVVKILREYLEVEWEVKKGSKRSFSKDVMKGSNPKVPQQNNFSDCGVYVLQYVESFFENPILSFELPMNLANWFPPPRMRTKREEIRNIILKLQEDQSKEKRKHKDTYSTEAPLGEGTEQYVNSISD
The source made the active and inactive calls.
Outcome codes: T = active, F = inactive

Smiles Code: Cc1cc(C(=O)Nc2ccc(N3CCCC3)c(Cl)c2)ccc1[N+](=O)[O-]
System Name: Sentrin-specific protease 6 (Homo sapiens)
Class Assignment: F
--
Smiles Code: O=C(COC(=O)c1ccc([N+](=O)[O-])s1)NNC(=O)c1ccccc1
System Name: Sentrin-specific protease 6 (Homo sapiens)
Class Assignment: T
--
Smiles Code: CC(C)=CCC1=C(OCC(=O)O)C(=O)c2ccccc2C1=O
System Name: Sentrin-specific protease 6 (Homo sapiens)
Class Assignment: T
--
Smiles Code: COc1ccc(C(=N)NOC(=O)C2CCCCC2)cc1
System Name: Sentrin-specific protease 6 (Homo sapiens)
Class Assignment: T
--
Smiles Code: COc1cccc(-c2nc(=S)c3c(o2)CCCC3)c1
System Name: Sentrin-specific protease 6 (Homo sapiens)
Class Assignment: T
--
Smiles Code: C#CCN1C(=O)S/C(=C\c2ccc(-c3ccc(Cl)c(C(=O)O)c3)o2)C1=O
System Name: Sentrin-specific protease 6 (Homo sapiens);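 note: Luminescence-based dose-response confirmatory assay of SENP6 inhibition, following up an ultra-high-throughput screen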
Class Assignment: T
